Each record here notes measured DC50.
Molecular target: BRM (Homo sapiens, UniProt P51531)
Construct: In-Cell Western Screen of BRM Degradation in SW1573 Cells; endogenous in cells; host or cells: SW1573
Sequence (P51531 whole entry): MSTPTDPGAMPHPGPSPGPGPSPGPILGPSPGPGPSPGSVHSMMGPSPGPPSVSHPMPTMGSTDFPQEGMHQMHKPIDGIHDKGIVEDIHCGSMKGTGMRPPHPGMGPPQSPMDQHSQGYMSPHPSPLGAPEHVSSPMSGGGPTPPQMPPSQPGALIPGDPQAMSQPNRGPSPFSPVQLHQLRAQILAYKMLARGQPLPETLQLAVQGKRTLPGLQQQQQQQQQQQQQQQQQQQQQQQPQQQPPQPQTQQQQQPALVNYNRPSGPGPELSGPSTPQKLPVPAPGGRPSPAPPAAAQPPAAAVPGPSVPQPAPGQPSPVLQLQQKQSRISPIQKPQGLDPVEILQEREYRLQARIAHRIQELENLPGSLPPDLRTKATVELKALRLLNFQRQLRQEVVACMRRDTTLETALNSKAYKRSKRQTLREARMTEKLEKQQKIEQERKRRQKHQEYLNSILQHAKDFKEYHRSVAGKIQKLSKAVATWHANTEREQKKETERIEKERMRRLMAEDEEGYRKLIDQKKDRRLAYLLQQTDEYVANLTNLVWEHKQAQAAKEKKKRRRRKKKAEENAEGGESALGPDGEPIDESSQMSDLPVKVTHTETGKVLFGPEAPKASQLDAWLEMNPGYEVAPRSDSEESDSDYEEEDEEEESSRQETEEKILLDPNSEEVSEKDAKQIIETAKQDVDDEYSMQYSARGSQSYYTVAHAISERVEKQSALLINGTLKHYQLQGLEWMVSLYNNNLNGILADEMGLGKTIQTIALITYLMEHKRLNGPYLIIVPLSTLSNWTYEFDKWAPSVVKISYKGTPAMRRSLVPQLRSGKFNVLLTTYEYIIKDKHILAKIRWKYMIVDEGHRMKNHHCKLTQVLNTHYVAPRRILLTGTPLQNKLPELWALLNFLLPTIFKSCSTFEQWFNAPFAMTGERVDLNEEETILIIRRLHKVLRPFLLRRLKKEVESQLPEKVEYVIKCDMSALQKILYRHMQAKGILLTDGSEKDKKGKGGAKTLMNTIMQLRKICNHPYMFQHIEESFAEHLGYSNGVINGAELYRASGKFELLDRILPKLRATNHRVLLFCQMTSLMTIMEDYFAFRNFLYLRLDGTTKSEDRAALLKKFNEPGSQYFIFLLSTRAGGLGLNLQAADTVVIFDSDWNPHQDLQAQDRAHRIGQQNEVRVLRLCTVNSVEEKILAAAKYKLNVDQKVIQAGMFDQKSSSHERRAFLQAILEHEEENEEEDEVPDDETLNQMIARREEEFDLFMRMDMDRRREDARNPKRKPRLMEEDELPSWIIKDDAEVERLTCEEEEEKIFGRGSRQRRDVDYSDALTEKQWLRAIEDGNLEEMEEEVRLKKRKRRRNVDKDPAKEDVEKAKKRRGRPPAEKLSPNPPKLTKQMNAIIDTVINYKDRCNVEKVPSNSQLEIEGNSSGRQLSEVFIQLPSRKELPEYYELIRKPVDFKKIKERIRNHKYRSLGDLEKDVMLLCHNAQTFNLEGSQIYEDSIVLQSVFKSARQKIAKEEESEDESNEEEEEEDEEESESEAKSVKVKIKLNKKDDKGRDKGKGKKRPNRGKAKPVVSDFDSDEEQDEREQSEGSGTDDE
Assay: In-cell Western screen of BRM degradation in SW1573 cells (Dmax and DC50)
Assay type: cell-based
Details: target protein degradation; read-out: BRM DC50

>  <molecule>
Cc1ncsc1-c1ccc([C@H](C)NC(=O)[C@@H]2C[C@@H](O)CN2C(=O)[C@@H](c2cc(OCCC3CCN(C(=O)[C@H]4C[C@@H](CN5CCC([C@@H](C)n6cc(-c7cc(-c8ccccc8O)nnc7N)cn6)CC5)C4)CC3)no2)C(C)C)cc1 [compound 452]

>  <DC50>
10 to 30 nM

$$$$
>  <molecule>
Cc1ncsc1-c1ccc([C@H](C)NC(=O)[C@@H]2C[C@@H](O)CN2C(=O)[C@@H](c2cc(N3CCC(CC4CCN(C[C@H]5C[C@H](Oc6cc(N7C8CCC7CN(c7cc(-c9ccccc9O)nnc7N)C8)ccn6)C5)CC4)CC3)no2)C(C)C)cc1 [compound 473]

>  <DC50>
< 2.5 nM

$$$$
>  <molecule>
Cc1ncsc1-c1ccc([C@H](C)NC(=O)[C@@H]2C[C@@H](O)CN2C(=O)[C@@H](c2cc(OCC#CC34CC(CN5CC(Oc6cc(N7C8CCC7CN(c7cc(-c9ccccc9O)nnc7N)C8)ccn6)C5)(C3)C4)no2)C(C)C)cc1 [compound 383]

>  <DC50>
> 30 nM

$$$$
>  <molecule>
Cc1ncsc1-c1ccc([C@H](C)NC(=O)[C@@H]2C[C@@H](O)CN2C(=O)[C@@H](c2cc(OCCN[C@H]3CC[C@H](O[C@H]4C[C@H](Oc5cc(N6C7CCC6CN(c6cc(-c8ccccc8O)nnc6N)C7)ccn5)C4)CC3)no2)C(C)C)cn1 [compound 396]

>  <DC50>
2.5 to 10 nM

$$$$

====

List of DC50 values.
Biological target: BRM (Homo sapiens)
Construct: In-Cell Western Screen of BRM Degradation in SW1573 Cells; endogenous in cells; host or cells: SW1573
Test: In-cell Western screen of BRM degradation in SW1573 cells (Dmax and DC50)
Format: cell-based
Conditions: BRM degradation, SW1573 cells; read-out: DC50

>  <compound>
Cc1ncsc1-c1ccc([C@H](C)NC(=O)[C@@H]2C[C@@H](O)CN2C(=O)[C@H](c2cc(OCCOCCOCCCCN3CC4(C3)CN(c3cc(-c5ccccc5O)nnc3N)C4)no2)C(C)C)cc1 [compound 65]

>  <DC50>
> 30 nM

$$$$
>  <compound>
Cc1ncsc1-c1ccc(CNC(=O)[C@@H]2C[C@@H](O)CN2C(=O)[C@@H](c2cc(OCCN3CCN(CCOc4cc(N5C6CCC5CN(c5cc(-c7ccccc7O)nnc5N)C6)ccn4)C[C@@H]3C)no2)C(C)C)cc1 [compound 210]

>  <DC50>
< 2.5 nM

$$$$
>  <compound>
Cc1ncsc1-c1ccc([C@H](C)NC(=O)[C@@H]2C[C@@H](O)CN2C(=O)[C@@H](c2cc(OCCN3CCN(CC#CCN4CCOC5(CCN(c6cc(-c7ccccc7O)nnc6N)CC5)C4)CC3)no2)C(C)C)cc1 [compound 188]

>  <DC50>
< 2.5 nM

$$$$
>  <compound>
Cc1ncsc1-c1ccc([C@H](C)NC(=O)[C@@H]2C[C@@H](O)CN2C(=O)[C@@H](c2cc(OCCN3CCC(O[C@H]4C[C@H](Oc5cc(N6C7CCC6CN(c6cc(-c8ccccc8O)nnc6N)C7)ccn5)C4)CC3)no2)C(C)C)cn1 [compound 180]

>  <DC50>
< 2.5 nM

$$$$
>  <compound>
Cc1ncsc1-c1ccc([C@H](C)NC(=O)[C@@H]2C[C@@H](O)CN2C(=O)[C@H](c2cc(N3CCC(N4CCC(O[C@H]5C[C@H](Oc6cc(N7C8CCC7CN(c7cc(-c9ccccc9O)nnc7N)C8)ccn6)C5)CC4)CC3)no2)C(C)C)cc1 [compound 684]

>  <DC50>
10 to 30 nM

$$$$
>  <compound>
CC[C@H](NC(=O)[C@@H]1C[C@@H](O)CN1C(=O)[C@@H](c1cc(N2CCC(CN3CCC(O[C@H]4C[C@H](Oc5cc(N6C7CCC6CN(c6cc(-c8ccccc8O)nnc6N)C7)ccn5)C4)CC3)CC2)no1)C(C)C)c1ccc(-c2scnc2C)cc1 [compound 654]

>  <DC50>
< 2.5 nM

$$$$
>  <compound>
Cc1ncsc1-c1ccc(CNC(=O)[C@@H]2C[C@@H](O)CN2C(=O)[C@H](c2cc(CCCOCCOCCOCCn3cc(-c4cc(-c5ccccc5O)nnc4N)cn3)no2)C(C)C)cc1 [compound 23]

>  <DC50>
> 30 nM

$$$$
>  <compound>
Cc1ncsc1-c1ccc([C@H](C)NC(=O)[C@@H]2C[C@@H](O)CN2C(=O)[C@@H](c2cc(OCCCC#Cc3ccc(O[C@H]4C[C@H](Oc5cc(N6C7CCC6CN(c6cc(-c8ccccc8O)nnc6N)C7)ccn5)C4)cn3)no2)C(C)C)cc1 [compound 250]

>  <DC50>
< 2.5 nM

$$$$
>  <compound>
CC(C)[C@H](C(=O)N1C[C@H](O)C[C@H]1C(=O)N[C@@H](C)c1ccc(C(F)(F)F)cc1)c1cc(OCCN2CCC(O[C@H]3C[C@H](Oc4cc(N5C6CCC5CN(c5cc(-c7ccccc7O)nnc5N)C6)ccn4)C3)CC2)no1 [compound 247]

>  <DC50>
> 30 nM

$$$$
>  <compound>
Cc1cnsc1-c1ccc([C@H](C)NC(=O)[C@@H]2C[C@@H](O)CN2C(=O)[C@@H](c2cc(OCCN3CCN(CCOc4cc(N5C6CCC5CN(c5cc(-c7ccccc7O)nnc5N)C6)ccn4)CC3)no2)C(C)C)cc1 [compound 266]

>  <DC50>
< 2.5 nM

$$$$
>  <compound>
Cc1ncsc1-c1ccc(CNC(=O)[C@@H]2C[C@@H](O)CN2C(=O)[C@H](c2cc(OCCOCCOCCCCN3CCOC4(CCN(c5cc(-c6ccccc6O)nnc5N)CC4)C3)no2)C(C)C)cc1 [compound 36]

>  <DC50>
> 30 nM

$$$$
>  <compound>
Cc1ncsc1-c1ccc(CNC(=O)[C@@H]2C[C@@H](O)CN2C(=O)[C@@H](NC(=O)COCCOCCOCCOCCCc2cc(N3C4CCC3CN(c3cc(-c5ccccc5O)nnc3N)C4)ccn2)C(C)(C)C)cc1 [compound 53]

>  <DC50>
2.5 to 10 nM

$$$$
>  <compound>
COc1nc(-c2scnc2C)ccc1[C@H](C)NC(=O)[C@@H]1C[C@@H](O)CN1C(=O)[C@@H](c1cc(OCCN2CCC(O[C@H]3C[C@H](Oc4cc(N5C6CCC5CN(c5cc(-c7ccccc7O)nnc5N)C6)ccn4)C3)CC2)no1)C(C)C [compound 279]

>  <DC50>
< 2.5 nM

$$$$
>  <compound>
Cc1cnn(C)c1-c1ccc([C@H](C)NC(=O)[C@@H]2C[C@@H](O)CN2C(=O)[C@@H](c2cc(OCCN3CCC(O[C@H]4C[C@H](Oc5cc(N6C7CCC6CN(c6cc(-c8ccccc8O)nnc6N)C7)ccn5)C4)CC3)no2)C(C)C)cc1 [compound 295]

>  <DC50>
< 2.5 nM

$$$$
>  <compound>
COCc1ncsc1-c1ccc([C@H](C)NC(=O)[C@@H]2C[C@@H](O)CN2C(=O)[C@H](c2cc(OCCN3CCC(O[C@H]4C[C@H](Oc5cc(N6C7CCC6CN(c6cc(-c8ccccc8O)nnc6N)C7)ccn5)C4)CC3)no2)C(C)C)cc1 [compound 184]

>  <DC50>
> 30 nM

$$$$
>  <compound>
CC(C)[C@@H](C(=O)N1C[C@H](O)C[C@H]1C(=O)N[C@@H](C)c1ccc(C#N)cc1)c1cc(N2CCC(CN3CCC(O[C@H]4C[C@H](Oc5cc(N6C7CCC6CN(c6cc(-c8ccccc8O)nnc6N)C7)ccn5)C4)CC3)CC2)no1 [compound 640]

>  <DC50>
< 2.5 nM

$$$$
>  <compound>
Cc1ncsc1-c1ccc([C@H](C)NC(=O)[C@@H]2C[C@@H](O)CN2C(=O)[C@@H](c2cc(OCCN3C[C@H]4C[C@@H]3CN4CCOc3cc(N4C5CCC4CN(c4cc(-c6ccccc6O)nnc4N)C5)ccn3)no2)C(C)C)cc1 [compound 136]

>  <DC50>
< 2.5 nM

$$$$
